# System: P3 FVB mouse cochlear explants
# Test summary: cisplatin-induced hair cell death in P3 FVB mouse cochlear explants
# Type: cell-based
# Test settings: Mus musculus; Oseltamivir added 1 h before cisplatin (150 μM), 24 h; read-out: IC50 (percent protection from cisplatin-induced hair cell death)
Quantity kind: IC50 (nM)
# output: bare number, implied unit nM

IC50 in this record for CCOC(=O)C1=C[C@@H](OC(CC)CC)[C@H](NC(C)=O)[C@@H](N)C1 [Oseltamivir, oseltamivir phosphate] : 450
